System: Enterobacter cloacae
Protocol text: In vitro minimum inhibitory concentration for Enterobacter cloacae (ATCC-27508) by agar dilution method
Assay type: functional
Measurement conditions: Enterobacter cloacae; read-out: MIC
Assay metric: MIC (µg/mL)

a. CCCC[n+]1c(N)cc(N)nc1SCC1=C(C(=O)[O-])N2C(=O)C(NC(=O)/C(=N\OC(C)(C)C(=O)O)c3cnc(N)s3)C2SC1 (configuration not stated)
b. Cc1cc(C)nc(SCC2=C(C(=O)O)N3C(=O)C(NC(=O)/C(=N\OC(C)(C)C(=O)O)c4cnc(N)s4)C3SC2)n1 (configuration not stated)
Request: Lab note: check whether a or b has the lower measured MIC. Answer by quoting the chosen item's label.
Result: a
(a: 0.03 µg/mL, b: 0.5 µg/mL)
